The measured values listed here are drawn from PubChem BioAssay (NCI).

Kindly supply the reported TGI values for the records listed here.
- System: KM12 colon
- assay_comment: NCI tumour cell line growth inhibition, 48 h

# query: TGI of entry CCSCCCSCCSCC > 100 µM

# query: TGI of entry CCOC(=O)C(C#N)(Cc1c[nH]c2ccccc12)NC(C)=O (stereo unspecified) > 100 µM

# query: TGI of entry CN(C)CCNc1ccc2c(=O)n(CCN(C)C)c(=O)n3c4ccc(O)cc4c(=O)c1c23 2.15 µM

# query: TGI of entry N=C1C(=N)c2ccccc2-c2ccccc21.[Cl-].[Ru+2].c1ccc(-c2ccccn2)nc1.c1ccc(-c2ccccn2)nc1 > 100 µM

# query: TGI of entry CC1=C([Se]CC(OC(=O)CC[Se]c2ccccc2)C(=O)NC(C)(C)C)C(=O)c2ccccc2C1=O (stereo unspecified) 3.2 µM

# query: TGI of entry COc1ccc(C2=Nn3c(nnc3-c3cc(Cl)cc(Cl)c3Cl)SC2)cc1 8.89 µM

# query: TGI of entry Cn1c(=O)nc2n(-c3ccc(O)cc3)c3ccccc3nc-2c1=O > 100 µM

# query: TGI of entry C[C@H](c1ccccc1)N1C(=O)[C@@H](O)[C@H]1[C@H](CO)OCc1ccccc1 > 100 µM

# query: TGI of entry CCc1c2c(nc3ccc(OCc4ccc(B(O)O)cc4)cc13)-c1cc3c(c(=O)n1C2)COC(=O)[C@]3(O)CC > 51.9 µM

# query: TGI of entry Cc1c(/C=N/NC(=O)c2ccccc2O)c(=O)n(-c2ccccc2)n1C > 100 µM

# query: TGI of entry CC(C)(C)c1ccc(OCCOc2ccc(C(C)(C)C)cc2N)c(N)c1 > 100 µM
